Measured Internalization Rec-1 [MFI] by item
Target: T1, CXCR5 (CD185; SwissProt: P32302; NCBI reference sequence: NP_001707.1) (human, UniProt P32302 1-372)
T1 sequence: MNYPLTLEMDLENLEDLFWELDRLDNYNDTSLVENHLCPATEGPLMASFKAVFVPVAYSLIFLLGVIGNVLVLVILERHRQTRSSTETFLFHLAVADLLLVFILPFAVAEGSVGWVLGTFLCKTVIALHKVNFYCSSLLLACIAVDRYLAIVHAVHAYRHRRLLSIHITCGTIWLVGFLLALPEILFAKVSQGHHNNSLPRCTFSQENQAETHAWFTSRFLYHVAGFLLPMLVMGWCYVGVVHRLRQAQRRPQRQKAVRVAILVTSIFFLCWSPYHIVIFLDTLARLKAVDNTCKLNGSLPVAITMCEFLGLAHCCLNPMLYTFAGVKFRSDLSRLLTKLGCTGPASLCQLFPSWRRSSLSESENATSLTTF
Assay: cell-based or functional assay

{"binder": "TPP-14495 (antibody, human IgG1, lambda, V domains shown, CypHer 5E fluorescent dye coupled to lysine residues (positions not stated)) VH: EVQLLESGGGLVQPGGSLRLSCAASGFTFSNYWMSWVRQAPGKGLEWVSAISGSGGSTRYADSVKGRFTISRDNSKNTLYLQMNSLRAEDTAVYYCTTQRRELGATNWGQGTLVTVSS VL: QSVLTQPPSASGTPGQRVTISCTGSSSNIGAGYVVHWYQQLPGTAPKLLIYSNNQRPSGVPDRFSGSKSGTSASLAISGLRSEDEADYYCQSYDSSLSGVVFGGGTKLTVLG", "Internalization Rec-1 [MFI]": "84 MFI"}
{"binder": "TPP-14509 (antibody, human IgG1, lambda, V domains shown, CypHer 5E fluorescent dye coupled to lysine residues (positions not stated)) VH: EVQLLESGGGLVQPGGSLRLSCAASGFTFSNYWMSWVRQAPGKGLEWVSAISGSGGSTYYADSVKGRFTISRDNSKNTLYLQMNSLRAEDTAVYYCTVQRRELGATNWGQGTLVTVSS VL: QSVLTQPPSASGTPGQRVTISCTGSSSNIGAGYVVHWYQQLPGTAPKLLIYSNNQRPSGVPDRFSGSKSGTSASLAISGLRSEDEADYYCQSYDSSLSGVVFGGGTKLTVLG", "Internalization Rec-1 [MFI]": "129 MFI"}
{"binder": "40C01 (antibody, human IgG1, kappa, V domains shown, CypHer 5E fluorescent dye coupled to lysine residues (positions not stated)) VH: EVQLLESGGGLVQPGGSLRLSCAASGFTFSRYVMVWVRQAPGKGLEWVSGISPSGGVTRYAASVKGRFTISRDNSKNTLYLQMNSLRAEDTAVYYCARIRKEMTTISYFFDYWGQGTLVTVSS VL: DIQMTQSPSSLSASVGDRVTITCRASQGVDAYVAWYQQKPGKVPKLLIYSTSTLASGVPSRFSGSGSGTDFTLTISSLQPEDVATYYCQSHNAAVVTFGQGTRLEIKR", "Internalization Rec-1 [MFI]": "49 MFI"}
